Assay: yeast display, Sf9 membrane polyspecificity reagent, FACS + sequencing; frameworks hold sequencing errors
parameter_measured: polyreactivity (PSR sort gate)

Below, 5 sequences whose answers are already recorded.
biopolymer_sequence | polyreactivity (PSR sort gate)
QVQLVESGGGLVQAGGSLRLSCAASASTLNGNAKAWYRQAPGKDRELVAAITTSGGSTYYADSVKGRFTISRDNAKNTDSLQMHSQNPEDTAVYYCNKLIGRRYGWANGYDYWGQGTQVTVSS | low polyreactivity
QVQLLESGGGLVQAGGSLRLSCVASGGILSSNAMGWYRQAPGKERELVAAISSGGSTNYADSVKGRFTISRDNAKNTVYLQMNSLKPDDTAVYYCAADSKIGSFDSWGQGTQVNVSS | low polyreactivity
QVQLVESGGGLVQAGGTLRISCAPSGSTCVVINMGWYRQAPGKERELVAAISYSGGSTYADSVKGRFTISRDNAKNTVYLQMNSLKLEDTAVYYCAARHYWWYDYWGQGTQVTVSS | low polyreactivity
QVQLVESGGGLVQAGGSLRLSCAASGFIFWPNAMGWYRQPPGKERELVAAISYSGGSTYYADSVKGRFTISRDNAKNTVYLQMNSLKPEDTAVYYCAKLPYRRVDYGYWGQGTQVTVSS | high polyreactivity
QVQLVESGGGLVQAGGSLRLRCAASGRIFGRNAMGWYRQAPGKERELVAAISGGGSTNYADSVKGRFTISRDNAKNTVYLQMKSLKPADTAVYYCAVKQGFYSRALKLYYWGQGTQVTVSS | high polyreactivity

--- query ---
Query: Respond only with polyreactivity (PSR sort gate) recorded for QVQLVDSGGGLVQAGGSLRLSCAASGSNFGTYAMGWYRQAPGKERELVAAITTNGVSTYYADSVKGRFTISRDNAKNTVYLQMNSLKPEDTAVYYCAAPIQAWVRHLADIRYDYWGQGTQVTVSS
Reply: low polyreactivity
